Biological target: T1, human IFN-ω (human, UniProt P05000 24-195)
T1 construct: also called interferon omega
Assay: ProteOn, one antigen concentration
Kd values, listed per item

binder	Kd [nM]
IFWM3339 (antibody, V domains shown, VH IFWH591, VL IFWL1093; converted mAb; also called IFWB3074) VH: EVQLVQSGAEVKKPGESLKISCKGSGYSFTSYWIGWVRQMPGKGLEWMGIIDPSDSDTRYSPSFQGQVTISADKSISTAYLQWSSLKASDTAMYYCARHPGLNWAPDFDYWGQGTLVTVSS VL: DIQMTQSPSSLSASVGDRVTITCRASQSIANNDLNWYQQKPGKAPKLLIHWASSLQSGVPSRFSGSGSGTDFTLTISSLQPEDFATYYCQQDYDWPLTFGQGTKVEIK	0.049
IFWM3348 (antibody, V domains shown, VH IFWH624, VL IFWL1006; converted mAb; also called IFWB3083) VH: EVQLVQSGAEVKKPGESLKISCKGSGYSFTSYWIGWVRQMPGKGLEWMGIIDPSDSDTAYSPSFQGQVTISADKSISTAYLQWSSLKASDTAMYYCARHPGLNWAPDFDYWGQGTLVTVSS VL: DIQMTQSPSSLSASVGDRVTITCRASQSIGGFLNWYQQKPGKAPKLLIYFASSLQSGVPSRFSGSGSGTDFTLTISSLQPEDFATYYCQQSYSLPITFGQGTKVEIK	0.05
IFWM3327 (antibody, V domains shown, VH IFWH591, VL IFWL1063; converted mAb; also called IFWB3062) VH: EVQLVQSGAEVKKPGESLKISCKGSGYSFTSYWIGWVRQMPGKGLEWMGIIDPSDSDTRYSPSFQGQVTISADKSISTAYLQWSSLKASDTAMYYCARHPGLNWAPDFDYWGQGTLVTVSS VL: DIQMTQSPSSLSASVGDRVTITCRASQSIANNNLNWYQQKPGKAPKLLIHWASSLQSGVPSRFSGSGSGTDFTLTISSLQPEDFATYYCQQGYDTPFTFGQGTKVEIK	0.039
IFWM3303 (antibody, V domains shown, VH IFWH591, VL IFWL992; converted mAb; also called IFWB3038) VH: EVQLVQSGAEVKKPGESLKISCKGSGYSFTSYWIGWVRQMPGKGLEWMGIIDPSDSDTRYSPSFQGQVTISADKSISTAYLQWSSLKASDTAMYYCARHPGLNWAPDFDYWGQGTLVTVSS VL: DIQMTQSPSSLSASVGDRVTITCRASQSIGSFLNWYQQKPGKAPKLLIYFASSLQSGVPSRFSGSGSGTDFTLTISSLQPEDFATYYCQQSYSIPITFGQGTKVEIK	0.013
IFWM3361 (antibody, V domains shown, VH IFWH624, VL IFWL1051; converted mAb; also called IFWB3096) VH: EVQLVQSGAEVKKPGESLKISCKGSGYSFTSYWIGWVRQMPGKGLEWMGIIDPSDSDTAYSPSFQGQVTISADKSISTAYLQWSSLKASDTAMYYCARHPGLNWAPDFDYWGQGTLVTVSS VL: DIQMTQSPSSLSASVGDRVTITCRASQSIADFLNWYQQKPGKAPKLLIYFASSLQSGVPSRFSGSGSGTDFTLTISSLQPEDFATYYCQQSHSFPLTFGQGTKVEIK	0.03
